- System: MCF-7 cells
- Protocol: MTT viability assay
- Format: cell-based
- Condition context: Homo sapiens, MCF7, 48 h
Collected EC50 values appear next to each entry.

>>> result("O=C(OCc1c(-c2ccccc2)no[n+]1[O-])/C(=C/c1cccs1)c1ccccc1 [Compound 9i]")
"> 100 µM"
>>> result("C/C(=N\\O)c1ccc(NC(=O)COC(=O)/C=C/c2cccs2)cc1 [Compound 6c]")
"> 100 µM"

// next entry
For reference, reported EC50 for O=C(OCc1c(-c2ccccc2)no[n+]1[O-])/C(=C/c1ccccc1)c1ccccc1 [Compound 9g] stands at > 100 µM

###

- Subject of test: bovine serum albumin (Bos taurus)
- Construct: bovine serum albumin solution (fraction V); purchased Merck and Sigma-Aldrich; host or cells: bovine serum (fraction V)
- Sequence (P02769 25-607): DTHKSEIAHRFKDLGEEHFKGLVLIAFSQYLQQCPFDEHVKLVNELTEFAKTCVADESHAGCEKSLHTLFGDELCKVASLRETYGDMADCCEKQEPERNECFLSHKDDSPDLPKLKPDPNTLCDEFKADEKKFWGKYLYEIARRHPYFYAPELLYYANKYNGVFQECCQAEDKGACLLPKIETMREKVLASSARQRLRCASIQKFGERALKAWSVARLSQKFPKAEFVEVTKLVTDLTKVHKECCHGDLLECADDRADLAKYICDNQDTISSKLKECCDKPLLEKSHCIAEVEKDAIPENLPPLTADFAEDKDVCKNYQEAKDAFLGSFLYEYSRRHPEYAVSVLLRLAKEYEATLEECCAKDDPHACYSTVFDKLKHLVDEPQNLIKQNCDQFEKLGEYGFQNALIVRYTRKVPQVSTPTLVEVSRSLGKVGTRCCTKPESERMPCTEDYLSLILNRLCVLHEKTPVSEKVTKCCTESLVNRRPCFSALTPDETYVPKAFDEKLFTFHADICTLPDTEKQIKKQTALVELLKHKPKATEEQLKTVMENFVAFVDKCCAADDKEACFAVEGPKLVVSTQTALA
- Protocol: In vitro inhibition of albumin denaturation
- Condition context: heat denaturation, 60 °C 10 min
- Procedure: The ability of a compound to inhibit the thermal denaturation of albumin is considered an indicator of anti-inflammatory activity. Heat exposure simulates conditions of cellular stress or inflammation, during which protein and tissue damage occur. […] Inhibition of albumin denaturation was measured following the reported method. […] After cooling to room temperature, the absorbance was measured at 660 nm. […]
Observation type: Albumin (inhibition of albumin denaturation)

>>> result("C/C(=N\\O)c1ccc(NC(=O)COC(=O)/C(=C/c2cccs2)c2ccccc2)cc1 [Compound 6i]")
"no"
>>> result("C/C(=N\\O)c1ccc(NC(=O)COC(=O)/C(=C/c2cccc3ccccc23)c2ccccc2)cc1 [Compound 6h]")
"no"
>>> result("O=C(C=Cc1cccc2ccccc12)OCc1c(-c2ccccc2)no[n+]1[O-] [Compound 9b]")
"no"
>>> result("C/C(=N\\O)c1ccc(NC(=O)COC(=O)C=Cc2ccccc2)cc1 [Compound 6a]")
"no"
>>> result("C/C(=N\\O)c1ccc(NC(=O)COC(=O)/C=C/c2ccco2)cc1 [Compound 6d]")
"10%"
>>> result("C/C(=N\\O)c1ccc(NC(=O)COC(=O)/C=C/c2cc3ccccc3s2)cc1 [Compound 6e]")
"63%"
>>> result("C/C(=N\\O)c1ccc(NC(=O)COC(=O)/C=C/c2cc3ccccc3o2)cc1 [Compound 6f]")
"no"
>>> result("O=C(/C=C/c1cc2ccccc2s1)OCc1c(-c2ccccc2)no[n+]1[O-] [Compound 9e]")
"no"

In plain terms, O=C(C=Cc1ccccc1)OCCOc1no[n+]([O-])c1S(=O)(=O)c1ccccc1 [Compound 11] has a documented Albumin (inhibition of albumin denaturation) of no

// Albumin (inhibition of albumin denaturation) lookup, compound = O=C(OCc1c(-c2ccccc2)no[n+]1[O-])/C(=C/c1ccccc1)c1ccccc1 [Compound 9g] , result: no

Measured values drawn from paper PMC12693419 for this set.
